# target: PTPN3, P26045
# Sequence (P26045 505-587): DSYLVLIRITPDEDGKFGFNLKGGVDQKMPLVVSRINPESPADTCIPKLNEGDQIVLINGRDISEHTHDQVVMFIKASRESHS
# assay_method_text: holdup assay
# Design: key: below the threshold = too weak to quantify, mostly under pKd 3.1 to 4
# conditions: plain residues with an end cap or a label only (N-terminal biotin on a linker: ado-ado)
quantity_measured: pKd

Previously resolved entries follow.
Task: Fill blank: measured pKd of the binder QLGSPTADLA [SIPA1, Q96FS4] is ____.
Output: below the threshold

Task: Fill blank: measured pKd of the binder SQDPKKPSRV [CBY2, Q8NA61] is ____.
Output: below the threshold

Task: Fill blank: measured pKd of the binder EKPIDSETKM [SLC1A3, P43003] is ____.
Output: 4.25

Task: Fill blank: measured pKd of the binder RSPVATATSC [DUSP5, Q16690] is ____.
Output: 4.05

Task: Fill blank: measured pKd of the binder SAGADSETHC [SLCO1B1, Q9Y6L6] is ____.
Output: 4.01

New cases:
Task: Fill blank: measured pKd of the binder AKADAQESRL [PLCB2, Q00722] is ____.
Output: 4.74

Task: Fill blank: measured pKd of the binder GDSSRKEYFI [GYPC, P04921] is ____.
Output: 4.16

Task: Fill blank: measured pKd of the binder LLQEEWETVM [PTH1R, Q03431] is ____.
Output: 4.92

Task: Fill blank: measured pKd of the binder HYPASPDSWV [CTNND2, Q9UQB3] is ____.
Output: 5.07

Task: Fill blank: measured pKd of the binder GNDPDRGTSI [GRID2, O43424] is ____.
Output: 4.52

Task: Fill blank: measured pKd of the binder DSEEELPTRL [GRK6, P43250] is ____.
Output: 3.77

Task: Fill blank: measured pKd of the binder IKLETKKTKL [SLC15A2, Q16348] is ____.
Output: below the threshold

Task: Fill blank: measured pKd of the binder STYCDYTIEI [FAM71C, Q8NEG0] is ____.
Output: 4.16

Reference source: paper PMC9482650
